target.of.assay: GRK2 (Homo sapiens, UniProt P25098)
Construct: purchased SignalChem A14-10G
Sequence (P25098 whole entry): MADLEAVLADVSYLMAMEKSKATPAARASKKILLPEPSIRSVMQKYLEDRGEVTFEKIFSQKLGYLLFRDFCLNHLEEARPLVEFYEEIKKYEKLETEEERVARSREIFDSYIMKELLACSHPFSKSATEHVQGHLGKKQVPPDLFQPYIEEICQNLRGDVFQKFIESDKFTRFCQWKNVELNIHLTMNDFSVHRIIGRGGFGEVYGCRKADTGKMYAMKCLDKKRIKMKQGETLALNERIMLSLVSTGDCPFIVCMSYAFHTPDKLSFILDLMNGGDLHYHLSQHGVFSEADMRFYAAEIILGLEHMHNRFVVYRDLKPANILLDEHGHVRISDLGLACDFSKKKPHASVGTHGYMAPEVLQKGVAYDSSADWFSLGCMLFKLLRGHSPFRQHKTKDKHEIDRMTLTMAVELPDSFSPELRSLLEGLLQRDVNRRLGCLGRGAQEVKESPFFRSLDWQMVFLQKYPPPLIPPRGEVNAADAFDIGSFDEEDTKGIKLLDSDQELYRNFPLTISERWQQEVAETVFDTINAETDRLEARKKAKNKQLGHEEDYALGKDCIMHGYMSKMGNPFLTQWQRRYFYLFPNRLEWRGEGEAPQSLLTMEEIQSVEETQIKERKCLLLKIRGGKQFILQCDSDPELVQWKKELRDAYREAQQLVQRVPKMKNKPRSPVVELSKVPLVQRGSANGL
experiment.summary: ADPGlo GRK2 Inhibition Assay (Example 8)
Type: biochemical
details: 7.5 nM GRK2, 10 μM ATP, ADP-Glo; read-out: GRK2 IC50 (nM) (Example 8)
log10(IC50) values for the molecules below.
Please note: log10 values; quantity IC50; unit nM.

# count of solved cases: 5
CCOc1ccc(C(CO)NC(=O)c2cccc(NCc3nnc(-c4ccncn4)n3C)c2)cn1 (stereo not drawn) [compound 41] ... 0.26
CC(NC(=O)c1cccc(NCc2nnc(-c3ccncn3)n2C)c1)c1c[nH]cn1 (stereo not drawn) [compound 52] ... 0.76
Cn1c(CNc2cccc(C(=O)NCc3cnn(-c4ccccc4)n3)c2)nnc1-c1ccncn1 [compound 55] ... 0.81
COc1cccnc1CNC(=O)c1cccc(NCc2nnc(-c3ccncc3)[nH]2)c1 [compound 33] ... 0.89
Cn1c(CNc2cccc(C(=O)NCc3cccc4c3OCC4)c2)nnc1-c1ccncn1 [compound 1] ... 1.43

Reported log10(IC50) for Cc1ccc(C(CO)NC(=O)c2cccc(NCc3nnc(-c4ccncn4)n3C)c2)cc1 (stereo not drawn) [compound 46] was 0.52

Reported log10(IC50) for Cn1c(CNc2cccc(C(=O)NC(CO)c3cc(F)ccc3F)c2)nnc1-c1ccncn1 (stereo not drawn) [compound 62] was 1.00

Reported log10(IC50) for Cc1ccc2ncc(CNC(=O)c3cccc(NCc4nnc(-c5ccncn5)n4C)c3)n2c1 [compound 44] was 0.45
